All values here come from ChEMBL document CHEMBL1144330.

# STUDY_TARGET: Caspase-8 (Homo sapiens, UniProt Q14790)
# Sequence (Q14790 217-374 limits assumed): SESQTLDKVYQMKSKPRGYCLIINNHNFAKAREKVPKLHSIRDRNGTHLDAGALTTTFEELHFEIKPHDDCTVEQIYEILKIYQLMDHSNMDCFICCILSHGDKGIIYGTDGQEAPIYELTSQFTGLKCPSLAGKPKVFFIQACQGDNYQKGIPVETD
# Sequence (Q14790 385-479 limits assumed): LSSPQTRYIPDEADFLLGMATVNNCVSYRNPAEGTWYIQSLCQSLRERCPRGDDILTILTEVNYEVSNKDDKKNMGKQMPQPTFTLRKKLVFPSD
# ASSAY_TEXT: Inhibitory concentration against recombinant human caspase-8 […]
Known pIC50 of a selection of compounds
Friendly reminder that pIC50 comes from taking -log10 of the concentration in mol/L.

Use the examples below as a reference point.
COc1ccc(S(C)(=O)=O)cc1CC(=O)N[C@H](C(=O)N[C@@H](CC(=O)O)C(=O)CSCc1ccccc1)C(C)C	6.31
CC[C@@H](C(=O)N[C@@H](CC(=O)O)C(=O)CSCc1ccccc1)n1cccc(NC(=O)[C@H](CC(=O)O)NC(C)=O)c1=O	6.66
CCC(C(=O)N[C@@H](CC(=O)O)C(=O)CNCN1Cc2ccccc2C1)n1ccnc(NCc2nonc2C)c1=O (some centres not stated)	5.37

Q: What value of pIC50 on Caspase-8 (Homo sapiens, UniProt Q14790) does CCC(C(=O)N[C@@H](CC(=O)O)C(=O)CSCc1ccccc1)n1ccnc(NCCn2cccn2)c1=O (some centres not stated) have?
Ans: 5.65

---

# STUDY_TARGET: Caspase-8 (Homo sapiens)
# ASSAY_TEXT: Inhibitory concentration against recombinant human caspase-8 […]
MEASUREMENT_KIND: pIC50
Friendly reminder that pIC50 comes from taking -log10 of the concentration in mol/L.

Use the examples below as a reference point.
CCC(C(=O)N[C@@H](CC(=O)O)C(=O)CSCc1ccccc1)n1ccnc(NCc2ccon2)c1=O (some centres undefined)	5.54
CCC(C(=O)N[C@@H](CC(=O)O)C(=O)CSCc1ccccc1)n1ccnc(NCc2nnc(-c3ccccc3)o2)c1=O (some centres undefined)	5.31
CCC(C(=O)N[C@@H](CC(=O)O)C(=O)CSCc1ccccc1)n1ccnc(NCCn2nc(C)cc2C)c1=O (some centres undefined)	5.78
CC(=O)N[C@@H](CC(=O)O)C(=O)N[C@@H](CCC(=O)O)C(=O)N[C@H](C(=O)N[C@@H](CC(=O)O)C(=O)CCCc1ccccc1)C(C)C	7.80

Q: Give the measured pIC50 of CCC(C(=O)N[C@@H](CC(=O)O)C(=O)CSCc1ccccc1)n1ccnc(Nc2ccc3sc(C)nc3c2)c1=O (some centres undefined) .
Ans: 5.56

Q: Give the measured pIC50 of CCC(C(=O)N[C@@H](CC(=O)O)C(=O)CSCc1ccccc1)n1ccnc(NCc2noc(C)n2)c1=O (some centres undefined) .
Ans: 5.12

Q: Give the measured pIC50 of CCC(C(=O)N[C@@H](CC(=O)O)C(=O)CNCN1C2CCC1CC2)n1ccnc(NCc2nonc2C)c1=O (some centres undefined) .
Ans: 5.04

Q: Give the measured pIC50 of CCC(C(=O)N[C@@H](CC(=O)O)C(=O)CSCc1ccccc1)n1ccnc(NCCc2nc(C)no2)c1=O (some centres undefined) .
Ans: 5.04

---

# STUDY_TARGET: Caspase-3 (Homo sapiens)
# Sequence (P42574 whole entry): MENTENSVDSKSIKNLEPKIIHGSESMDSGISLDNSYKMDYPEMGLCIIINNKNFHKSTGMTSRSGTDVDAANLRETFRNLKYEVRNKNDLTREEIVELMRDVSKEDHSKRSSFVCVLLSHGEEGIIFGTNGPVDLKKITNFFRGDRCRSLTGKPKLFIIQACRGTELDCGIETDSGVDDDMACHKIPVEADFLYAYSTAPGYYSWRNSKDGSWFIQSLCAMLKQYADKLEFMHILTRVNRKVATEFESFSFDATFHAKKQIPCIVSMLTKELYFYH
# ASSAY_TEXT: Inhibitory concentration against recombinant human caspase-3 in neuronal precursor (NT2) cells
MEASUREMENT_KIND: pIC50
Friendly reminder that pIC50 comes from taking -log10 of the concentration in mol/L.

Use the examples below as a reference point.
CCC(C(=O)N[C@@H](CC(=O)O)C(=O)CNCN1CCOCC1)n1cc(C(C)(C)C)nc(NCc2nonc2C)c1=O (stereo partly drawn)	6.96
CCCCCCN(C)CNCC(=O)[C@H](CC(=O)O)NC(=O)C(CC)n1cc(C(C)C)nc(NCc2nonc2C)c1=O (stereo partly drawn)	7.89
CCC(C(=O)N[C@@H](CC(=O)O)C(=O)CSCc1ccccc1)n1ccnc(NCCn2cccn2)c1=O (stereo partly drawn)	7.09

Q: Give the measured pIC50 of CCC(C(=O)N[C@@H](CC(=O)O)C(C)=O)n1cc(C(C)(C)C)nc(NCc2nonc2C)c1=O (stereo partly drawn) .
Ans: 7.19

Q: Give the measured pIC50 of CCCCCCCCN(C)CNCC(=O)[C@H](CC(=O)O)NC(=O)C(CC)n1ccnc(NCc2nonc2C)c1=O (stereo partly drawn) .
Ans: 8.05

Q: Give the measured pIC50 of CCC(C(=O)N[C@@H](CC(=O)O)C(=O)CSCc1ccccc1)n1ccnc(NCCn2cncn2)c1=O (stereo partly drawn) .
Ans: 7.74

Q: Give the measured pIC50 of CCC(C(=O)N[C@@H](CC(=O)O)C(=O)CSCc1ccccc1)n1ccnc(NCc2nnc(-c3ccccc3)o2)c1=O (stereo partly drawn) .
Ans: 6.51

Q: Give the measured pIC50 of "CC(=O)N[C@@H](CC(=O)O)C(=O)N[C@@H](CCC(=O)O)C(=O)N[C@H](C(=O)N[C@@H](CC(=O)O)C(=O)CCCc1ccccc1)C(C)C" .
Ans: 9.10

---

# STUDY_TARGET: Caspase-6 (Homo sapiens, UniProt P55212)
# Sequence (P55212 24-179 limits assumed): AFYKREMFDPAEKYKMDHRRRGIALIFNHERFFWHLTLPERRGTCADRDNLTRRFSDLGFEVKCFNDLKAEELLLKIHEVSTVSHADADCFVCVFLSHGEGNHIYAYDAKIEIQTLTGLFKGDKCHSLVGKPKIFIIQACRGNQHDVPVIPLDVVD
# Sequence (P55212 194-293 limits assumed): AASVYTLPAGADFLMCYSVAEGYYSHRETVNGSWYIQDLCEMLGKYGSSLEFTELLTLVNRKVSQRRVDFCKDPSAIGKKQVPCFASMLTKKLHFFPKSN
# ASSAY_TEXT: Inhibitory concentration against caspase-6 in neuronal precursor (NT2) cells
MEASUREMENT_KIND: pIC50
Friendly reminder that pIC50 comes from taking -log10 of the concentration in mol/L.

Q: What value of pIC50 on Caspase-6 (Homo sapiens, UniProt P55212) does CCCCCCN(C)CC(=O)C(CC(=O)O)NC(=O)C(CC)n1cc(C(C)(C)C)nc(NCc2nonc2C)c1=O (stereo unspecified) have?
Ans: 5.77

---

Known IC50 of a selection of compounds
# STUDY_TARGET: UniProtKB P29466
# Sequence (P29466 120-297 limits assumed): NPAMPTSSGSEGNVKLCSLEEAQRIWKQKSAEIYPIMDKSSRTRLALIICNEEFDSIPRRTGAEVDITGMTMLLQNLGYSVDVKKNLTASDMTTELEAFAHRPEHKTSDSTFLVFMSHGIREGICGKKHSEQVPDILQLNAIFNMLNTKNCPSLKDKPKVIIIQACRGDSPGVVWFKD
# Sequence (P29466 317-404 limits assumed): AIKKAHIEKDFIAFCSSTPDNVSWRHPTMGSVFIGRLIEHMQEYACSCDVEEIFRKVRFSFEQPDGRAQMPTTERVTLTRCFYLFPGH
# ASSAY_TEXT: Inhibitory concentration against recombinant human caspase-1 in neuronal precursor (NT2) cells
Param answer (str): number followed by unit.

Use the examples below as a reference point.
CCC(C(=O)N[C@@H](CC(=O)O)C(=O)CSCc1ccccc1)n1ccnc(NCc2cccs2)c1=O (some centres not stated)	65 nM
CCC(C(=O)N[C@@H](CC(=O)O)C(=O)CSCc1ccccc1)n1ccnc(NCc2noc(C)n2)c1=O (some centres not stated)	1080 nM

Q: Give the measured IC50 of CCC(C(=O)N[C@H](C=O)CC(=O)O)n1ccnc(NCc2nonc2C)c1=O (some centres not stated) .
Ans: 150 nM

Q: Give the measured IC50 of CCC(C(=O)N[C@@H](CC(=O)O)C(=O)c1ncc(-c2ccccc2)o1)n1ccnc(NCc2nonc2C)c1=O (some centres not stated) .
Ans: 460 nM

Q: Give the measured IC50 of CCC(C(=O)N[C@@H](CC(=O)O)C(=O)CSCc1ccccc1)n1ccnc(NCCCN2CCCC2=O)c1=O (some centres not stated) .
Ans: 1900 nM

Q: Give the measured IC50 of CCC(C(=O)N[C@@H](CC(=O)O)C(=O)CN[C@@H](C)c1ccccc1)n1ccnc(NCc2nonc2C)c1=O (some centres not stated) .
Ans: 64 nM

Q: Give the measured IC50 of CCC(C(=O)N[C@@H](CC(=O)O)C(=O)CSCc1ccccc1)n1ccnc(NCc2nonc2C)c1=O (some centres not stated) .
Ans: 220 nM

Q: Give the measured IC50 of CCC(C(=O)N[C@@H](CC(=O)O)C(=O)CSCc1ccccc1)n1ccnc(NCCn2cncn2)c1=O (some centres not stated) .
Ans: 1930 nM

Q: Give the measured IC50 of CCC(C(=O)N[C@@H](CC(=O)O)C(=O)CNCN1CCc2ccccc2C1)n1ccnc(NCc2nonc2C)c1=O (some centres not stated) .
Ans: 13 nM

Q: Give the measured IC50 of CCC(C(=O)N[C@@H](CC(=O)O)C(=O)CSCc1ccccc1)n1ccnc(NCc2cc(C)no2)c1=O (some centres not stated) .
Ans: 230 nM

---

# ASSAY_TEXT: Inhibitory concentration against etoposide induced apoptosis in mice cerebellar granule neurons
# Assay type: functional
# CONDITION_SET: Mus musculus
MEASUREMENT_KIND: pIC50
Friendly reminder that pIC50 comes from taking -log10 of the concentration in mol/L.

CCCCCCN(C)CC(=O)C(CC(=O)O)NC(=O)C(CC)n1cc(C(C)(C)C)nc(NCc2nonc2C)c1=O (configuration not stated)	7.30

In the following, a different molecule is considered.
Q: Give the measured pIC50 of CCCCCN(C)CC(=O)C(CC(=O)O)NC(=O)C(CC)n1cc(C(C)(C)C)nc(NCc2nonc2C)c1=O (configuration not stated) .
Ans: 7.22

---

# STUDY_TARGET: Caspase-10 (Homo sapiens)
# Sequence (Q92851 220-415 limits assumed): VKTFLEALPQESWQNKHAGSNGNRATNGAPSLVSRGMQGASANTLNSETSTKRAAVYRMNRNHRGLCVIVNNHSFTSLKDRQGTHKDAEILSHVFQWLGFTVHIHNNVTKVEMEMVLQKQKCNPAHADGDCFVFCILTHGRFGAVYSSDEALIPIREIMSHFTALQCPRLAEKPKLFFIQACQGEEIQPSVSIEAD
# Sequence (Q92851 416-521 limits assumed): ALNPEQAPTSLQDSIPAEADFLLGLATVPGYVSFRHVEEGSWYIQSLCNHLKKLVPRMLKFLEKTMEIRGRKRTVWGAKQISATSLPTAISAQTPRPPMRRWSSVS
# ASSAY_TEXT: Inhibitory concentration against caspase-10 in neuronal precursor (NT2) cells
MEASUREMENT_KIND: IC50 (µM)
Give the number; µM is assumed, so skip it.

Q: Give the measured IC50 of CCCCCCN(C)CC(=O)C(CC(=O)O)NC(=O)C(CC)n1cc(C(C)(C)C)nc(NCc2nonc2C)c1=O (stereo unspecified) .
Ans: 17.7
